All figures here come from the supplement of paper PMC12042874.

- protocol summary: amyloid nucleation score (Sup35N fusion, yeast selection) (log enrichment); library NNK2; higher = more nucleation; inactive = no reads after selection;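 also: zero at mode of non-aggregating sequences after 7 days selection at 30°C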
readout label: amyloid nucleation score
Output: the number by itself.

Here's what some known entries look like.
Any idea what amyloid nucleation score was measured for RSALVGGRHNVVNWVRGSKM ?
0.079

Entry KYMLLCSICIFRNQGKKFRL : reported amyloid nucleation score = ?
8.38

Consider the substance NFNGYM and give its measured amyloid nucleation score.
-1.09

What value of amyloid nucleation score has been reported for the following substance? LFNVMLCMP
4.17

Please look up its amyloid nucleation score: DGLARAYAARM
1.53

---
State the recorded amyloid nucleation score for this entry: SLFITASYYNFRG
3.62

Any idea what its amyloid nucleation score is? The substance is NVAGCSWSSQLPRPTP
1.46

Param item = VMAILCTNARQLEDSLRQVE ; retrieve measured amyloid nucleation score.
0.452

Consider the substance shown here: LIRPSLPSS What is its recorded amyloid nucleation score?
0.807

What measured amyloid nucleation score goes with VSSETSGFMIGYLYVDLNGV ?
-0.814

Quick one: amyloid nucleation score for KLGYHLSMIFVFRNVVCPYI ?
-0.711
